biological target: T1, human collagen type I, acid soluble, extracted from placenta (Sigma C7774) (human, UniProt P02452 162-1218; P08123 80-1119); experiment: dried collagen assay; note: test concentration or dose not given here
T1 construct: tissue extract, gelled and dried in wells; also called dried human collagen; h-Collagen
T1 sequence (P02452 162-1218 limits assumed, chain 1 of 2): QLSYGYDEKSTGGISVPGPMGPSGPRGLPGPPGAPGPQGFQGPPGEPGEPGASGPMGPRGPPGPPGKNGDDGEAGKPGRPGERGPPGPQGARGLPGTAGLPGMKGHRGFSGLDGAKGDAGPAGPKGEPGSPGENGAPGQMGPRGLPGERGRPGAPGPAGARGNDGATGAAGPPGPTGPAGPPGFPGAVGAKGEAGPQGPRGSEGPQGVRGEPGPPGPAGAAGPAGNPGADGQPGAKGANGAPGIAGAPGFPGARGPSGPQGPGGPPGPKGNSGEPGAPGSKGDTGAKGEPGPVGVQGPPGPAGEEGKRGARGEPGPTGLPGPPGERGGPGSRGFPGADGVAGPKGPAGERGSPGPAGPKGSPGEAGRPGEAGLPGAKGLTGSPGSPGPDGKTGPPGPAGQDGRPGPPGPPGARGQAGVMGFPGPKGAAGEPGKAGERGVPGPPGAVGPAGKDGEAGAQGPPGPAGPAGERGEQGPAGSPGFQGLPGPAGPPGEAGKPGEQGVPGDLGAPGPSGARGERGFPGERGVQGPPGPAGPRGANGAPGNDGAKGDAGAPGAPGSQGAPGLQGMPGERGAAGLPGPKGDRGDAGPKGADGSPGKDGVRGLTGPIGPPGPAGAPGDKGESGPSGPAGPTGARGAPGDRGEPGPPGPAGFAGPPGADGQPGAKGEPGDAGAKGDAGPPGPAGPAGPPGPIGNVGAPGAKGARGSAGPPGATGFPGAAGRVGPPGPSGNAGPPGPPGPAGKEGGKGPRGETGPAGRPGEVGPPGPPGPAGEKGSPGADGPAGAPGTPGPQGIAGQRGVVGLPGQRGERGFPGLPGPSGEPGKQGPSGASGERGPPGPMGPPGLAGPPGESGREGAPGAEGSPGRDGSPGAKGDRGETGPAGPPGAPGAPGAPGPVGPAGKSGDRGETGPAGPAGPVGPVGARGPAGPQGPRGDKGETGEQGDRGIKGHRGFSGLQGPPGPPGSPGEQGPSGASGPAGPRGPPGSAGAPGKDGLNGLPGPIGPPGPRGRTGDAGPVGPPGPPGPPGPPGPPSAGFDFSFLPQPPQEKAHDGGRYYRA
T1 sequence (P08123 80-1119 limits assumed, chain 2 of 2): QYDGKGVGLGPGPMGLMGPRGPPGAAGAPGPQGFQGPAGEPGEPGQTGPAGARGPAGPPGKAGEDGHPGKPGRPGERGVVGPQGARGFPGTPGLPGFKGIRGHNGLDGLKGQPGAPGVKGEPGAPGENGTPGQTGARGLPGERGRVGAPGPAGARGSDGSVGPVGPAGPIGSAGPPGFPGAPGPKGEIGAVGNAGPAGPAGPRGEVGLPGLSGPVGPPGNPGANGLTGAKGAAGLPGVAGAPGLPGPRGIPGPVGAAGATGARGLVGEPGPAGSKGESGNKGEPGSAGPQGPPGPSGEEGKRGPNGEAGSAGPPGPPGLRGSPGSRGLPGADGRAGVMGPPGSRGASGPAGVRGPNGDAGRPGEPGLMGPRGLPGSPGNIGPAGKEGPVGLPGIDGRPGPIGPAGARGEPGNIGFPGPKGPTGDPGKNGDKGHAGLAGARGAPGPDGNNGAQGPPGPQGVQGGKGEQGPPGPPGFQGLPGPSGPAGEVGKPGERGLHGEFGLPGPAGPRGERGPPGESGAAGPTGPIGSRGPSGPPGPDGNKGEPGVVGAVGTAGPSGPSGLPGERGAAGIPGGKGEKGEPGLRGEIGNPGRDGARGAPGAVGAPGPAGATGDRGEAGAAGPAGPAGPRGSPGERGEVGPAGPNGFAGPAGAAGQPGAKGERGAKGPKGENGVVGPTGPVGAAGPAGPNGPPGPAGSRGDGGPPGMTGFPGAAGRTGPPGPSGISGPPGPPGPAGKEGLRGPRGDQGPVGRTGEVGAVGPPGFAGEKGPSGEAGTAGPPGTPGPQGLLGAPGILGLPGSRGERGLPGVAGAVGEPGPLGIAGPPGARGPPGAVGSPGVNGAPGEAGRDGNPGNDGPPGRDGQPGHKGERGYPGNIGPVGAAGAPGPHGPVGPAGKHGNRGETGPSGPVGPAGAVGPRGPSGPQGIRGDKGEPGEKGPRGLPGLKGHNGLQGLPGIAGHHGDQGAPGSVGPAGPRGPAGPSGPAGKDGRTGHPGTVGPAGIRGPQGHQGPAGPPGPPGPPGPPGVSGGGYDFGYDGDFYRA
Bridge positions count the residues as written; N and C are the ends. Square brackets hold non-standard residues; d marks the D form. Ends that are not written are not given here.
Assay endpoint: % bound (%)

The following binders have reported results that may help.
WWACQKGQHDWEKCHWL (disulfide 4-14 (inferred), cyclic, disulfide) [SEQ ID NO 93] : 5
QWTCSGDEYTWHCNY[dE] (disulfide 4-13 (inferred); not fully specified (N-terminus); printed as QWTCSGDEYTWHCNYe, cyclic, disulfide) [SEQ ID NO 178] : 90

a = EWHCVFIQGDWLCNSG (disulfide 4-13 (inferred), cyclic, disulfide) [SEQ ID NO 72]
b = [dQ]WTCSGDEYTWHCNYE (disulfide 4-13 (inferred); not fully specified (N-terminus, C-terminus); printed as qWTCSGDEYTWHCNYE, cyclic, disulfide) [SEQ ID NO 164]
Out of a and b , name the one with the higher % bound. Identify your selection by its label.
b
(b: 46%, a: 1%)

Every entry's value here was drawn from patent US20080044360A1.
